PROCEDURE_SUMMARY: Hygroscopicity
Format: physicochemical
REPORTED_PROPERTY: hygroscopicity

INSERT INTO assay_data (compound, obs_value) VALUES
  ('CNCc1ccc(-c2[nH]c3cc(F)cc4c3c2CCNC4=O)cc1 [Crystalline Form IV of Rucaparib Hemi-Edisylate]', 'non-hygroscopic'),
  ('CNCc1ccc(-c2[nH]c3cc(F)cc4c3c2CCNC4=O)cc1 [Crystalline Form I of Rucaparib base]', 'non-hygroscopic'),
  ('CNCc1ccc(-c2[nH]c3cc(F)cc4c3c2CCNC4=O)cc1.Cc1ccc(S(=O)(=O)O)cc1', 'non-hygroscopic'),
  ('CNCc1ccc(-c2[nH]c3cc(F)cc4c3c2CCNC4=O)cc1 [Crystalline Form C of Rucaparib base]', 'non-hygroscopic');

----------
PROCEDURE_SUMMARY: API mass increase of the salt vs. the free base
REPORTED_PROPERTY: API mass increase of the salt vs. the free base (%)

INSERT INTO measurements (compound, obs_value) VALUES
  ('CNCc1ccc(-c2[nH]c3cc(F)cc4c3c2CCNC4=O)cc1.Cc1ccc(S(=O)(=O)O)cc1', 53);

P. CNCc1ccc(-c2[nH]c3cc(F)cc4c3c2CCNC4=O)cc1 [Rucaparib camsylate, reference compound]
Q. CNCc1ccc(-c2[nH]c3cc(F)cc4c3c2CCNC4=O)cc1 [Crystalline Form IV of Rucaparib Hemi-Edisylate]
Q: Given P and Q , report the one with the higher recorded API mass increase of the salt vs. the free base. Reply briefly: the label of your chosen item.
Ans: P
(P: 72%, Q: 9%)

----------
PROCEDURE_SUMMARY: API mass increase of the salt vs. the free base
REPORTED_PROPERTY: API mass increase of the salt vs. the free base

INSERT INTO assay_data (compound, obs_value) VALUES
  ('CNCc1ccc(-c2[nH]c3cc(F)cc4c3c2CCNC4=O)cc1 [Crystalline Form II of Rucaparib base]', 'no API mass increase'),
  ('CNCc1ccc(-c2[nH]c3cc(F)cc4c3c2CCNC4=O)cc1 [Crystalline Form I of Rucaparib base]', 'no API mass increase'),
  ('CNCc1ccc(-c2[nH]c3cc(F)cc4c3c2CCNC4=O)cc1 [Crystalline Form C of Rucaparib base]', 'no API mass increase');
